- TARGET: AMdnB (Anabaena sp. PCC 7120)
- PROTOCOL: ITC
PROPERTY: Kd (µM)
Only the number, expressed in µM, is required.

Query string: Any idea what its Kd is? The binder is MPENRQEDLNAQAVPFFARFLEGQ [AMdnA_(1–24) peptide (truncated AMdnA LP)]
Result string: 12.3

Where do these numbers come from? They come from paper PMC8816810.
